# Protocol text: microbe, parasite or virus in culture
# Type: functional
# Measurement conditions: Mycobacterium tuberculosis
Active and inactive are the calls of the source.
Each entry below lists one item and its recorded CC50 value.

Here are 5 compounds together with their reported answers.
NC1=NC[C@H](CC2CCCCC2)N1CCc1cc(C(F)(F)F)cc(C(F)(F)F)c1    26 µM (active)
Clc1ccc(NNc2ccnc3cc(Cl)ccc23)cc1    > 40 µM (active)
O=C1Nc2ccc(Br)cc2/C1=C/C(=O)c1ccc2c(c1)OCO2    32.2 µM (active)
CCN1CCN(CCCNC(=O)c2ccc(/C=C3/Oc4ccccc4N(Cc4cccc(C)c4)C3=O)cc2)CC1    5.99 µM (active)
O=[N+]([O-])c1ccc(COc2ccc(-c3[nH]ncc3-c3ccc(Cl)cc3)c(O)c2)cc1    > 40 µM (active)

In the following, a different compound is considered.
# CC50 of CCCCCn1c(=O)c2ccccc2n2c(CCl)nnc12 = 11.7 µM (active)

* * *

Each entry below lists one item and its recorded EC50 value.
# Test system: BJ
# Protocol text: cells
# Format: functional, cell-based
# Measurement conditions: Homo sapiens
Calls of active or inactive are those of the source.

CCc1cc2c(s1)N1Cc3ccccc3C(C(=O)c3cccc([N+](=O)[O-])c3)=C1NC2=O    > 150 µM (not active)
Oc1cccc2ccc(/C=C/c3ccccc3Br)nc12    18.1 µM (active)

# EC50 of COc1ccccc1N1CCN(C(=O)C2c3ccccc3Oc3ccccc32)CC1 = 40.2 µM (inconclusive)

# EC50 of COc1ccc2sc(N(CCCN(C)C)C(=O)c3ccc(S(=O)(=O)N4CCc5ccccc5C4)cc3)nc2c1 = 10 µM (active)

* * *

# Assayed system: UniProtKB P33261
# Sequence (P33261 whole entry): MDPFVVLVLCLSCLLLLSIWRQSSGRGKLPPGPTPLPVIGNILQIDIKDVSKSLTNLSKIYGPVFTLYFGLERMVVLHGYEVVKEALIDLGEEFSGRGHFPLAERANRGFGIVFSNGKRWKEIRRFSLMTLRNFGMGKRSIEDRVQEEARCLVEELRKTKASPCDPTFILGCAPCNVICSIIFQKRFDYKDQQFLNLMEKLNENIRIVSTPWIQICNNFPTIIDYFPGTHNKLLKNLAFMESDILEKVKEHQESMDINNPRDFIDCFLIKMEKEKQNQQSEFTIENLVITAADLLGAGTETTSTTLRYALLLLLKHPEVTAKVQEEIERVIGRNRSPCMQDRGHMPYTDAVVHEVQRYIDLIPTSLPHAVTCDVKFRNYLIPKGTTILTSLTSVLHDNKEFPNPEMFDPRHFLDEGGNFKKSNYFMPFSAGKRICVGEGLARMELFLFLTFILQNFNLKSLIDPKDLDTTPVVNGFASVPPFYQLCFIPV
# Protocol text: Cytochrome panel assay with activity outcomes. Panel member name: p450-cyp2c19 Compounds with AC50 equal or less than 10 uM are considered active
# Format: functional
Readout name: AC50

CCN1CCN(c2nc3c(c(=O)[nH]c(=O)n3C)n2CCCSc2ncccn2)CC1    inconclusive
O=C(O)CS(=O)(=O)C(c1ccccc1)c1ccccc1    inconclusive
Clc1ccc2c(N[C@H]3CC[C@H](N4CCCCC4)CC3)ccnc2c1    inconclusive

* * *

# Assayed system: UniProt P49327
# Sequence (P49327 whole entry, the tested form may be a part): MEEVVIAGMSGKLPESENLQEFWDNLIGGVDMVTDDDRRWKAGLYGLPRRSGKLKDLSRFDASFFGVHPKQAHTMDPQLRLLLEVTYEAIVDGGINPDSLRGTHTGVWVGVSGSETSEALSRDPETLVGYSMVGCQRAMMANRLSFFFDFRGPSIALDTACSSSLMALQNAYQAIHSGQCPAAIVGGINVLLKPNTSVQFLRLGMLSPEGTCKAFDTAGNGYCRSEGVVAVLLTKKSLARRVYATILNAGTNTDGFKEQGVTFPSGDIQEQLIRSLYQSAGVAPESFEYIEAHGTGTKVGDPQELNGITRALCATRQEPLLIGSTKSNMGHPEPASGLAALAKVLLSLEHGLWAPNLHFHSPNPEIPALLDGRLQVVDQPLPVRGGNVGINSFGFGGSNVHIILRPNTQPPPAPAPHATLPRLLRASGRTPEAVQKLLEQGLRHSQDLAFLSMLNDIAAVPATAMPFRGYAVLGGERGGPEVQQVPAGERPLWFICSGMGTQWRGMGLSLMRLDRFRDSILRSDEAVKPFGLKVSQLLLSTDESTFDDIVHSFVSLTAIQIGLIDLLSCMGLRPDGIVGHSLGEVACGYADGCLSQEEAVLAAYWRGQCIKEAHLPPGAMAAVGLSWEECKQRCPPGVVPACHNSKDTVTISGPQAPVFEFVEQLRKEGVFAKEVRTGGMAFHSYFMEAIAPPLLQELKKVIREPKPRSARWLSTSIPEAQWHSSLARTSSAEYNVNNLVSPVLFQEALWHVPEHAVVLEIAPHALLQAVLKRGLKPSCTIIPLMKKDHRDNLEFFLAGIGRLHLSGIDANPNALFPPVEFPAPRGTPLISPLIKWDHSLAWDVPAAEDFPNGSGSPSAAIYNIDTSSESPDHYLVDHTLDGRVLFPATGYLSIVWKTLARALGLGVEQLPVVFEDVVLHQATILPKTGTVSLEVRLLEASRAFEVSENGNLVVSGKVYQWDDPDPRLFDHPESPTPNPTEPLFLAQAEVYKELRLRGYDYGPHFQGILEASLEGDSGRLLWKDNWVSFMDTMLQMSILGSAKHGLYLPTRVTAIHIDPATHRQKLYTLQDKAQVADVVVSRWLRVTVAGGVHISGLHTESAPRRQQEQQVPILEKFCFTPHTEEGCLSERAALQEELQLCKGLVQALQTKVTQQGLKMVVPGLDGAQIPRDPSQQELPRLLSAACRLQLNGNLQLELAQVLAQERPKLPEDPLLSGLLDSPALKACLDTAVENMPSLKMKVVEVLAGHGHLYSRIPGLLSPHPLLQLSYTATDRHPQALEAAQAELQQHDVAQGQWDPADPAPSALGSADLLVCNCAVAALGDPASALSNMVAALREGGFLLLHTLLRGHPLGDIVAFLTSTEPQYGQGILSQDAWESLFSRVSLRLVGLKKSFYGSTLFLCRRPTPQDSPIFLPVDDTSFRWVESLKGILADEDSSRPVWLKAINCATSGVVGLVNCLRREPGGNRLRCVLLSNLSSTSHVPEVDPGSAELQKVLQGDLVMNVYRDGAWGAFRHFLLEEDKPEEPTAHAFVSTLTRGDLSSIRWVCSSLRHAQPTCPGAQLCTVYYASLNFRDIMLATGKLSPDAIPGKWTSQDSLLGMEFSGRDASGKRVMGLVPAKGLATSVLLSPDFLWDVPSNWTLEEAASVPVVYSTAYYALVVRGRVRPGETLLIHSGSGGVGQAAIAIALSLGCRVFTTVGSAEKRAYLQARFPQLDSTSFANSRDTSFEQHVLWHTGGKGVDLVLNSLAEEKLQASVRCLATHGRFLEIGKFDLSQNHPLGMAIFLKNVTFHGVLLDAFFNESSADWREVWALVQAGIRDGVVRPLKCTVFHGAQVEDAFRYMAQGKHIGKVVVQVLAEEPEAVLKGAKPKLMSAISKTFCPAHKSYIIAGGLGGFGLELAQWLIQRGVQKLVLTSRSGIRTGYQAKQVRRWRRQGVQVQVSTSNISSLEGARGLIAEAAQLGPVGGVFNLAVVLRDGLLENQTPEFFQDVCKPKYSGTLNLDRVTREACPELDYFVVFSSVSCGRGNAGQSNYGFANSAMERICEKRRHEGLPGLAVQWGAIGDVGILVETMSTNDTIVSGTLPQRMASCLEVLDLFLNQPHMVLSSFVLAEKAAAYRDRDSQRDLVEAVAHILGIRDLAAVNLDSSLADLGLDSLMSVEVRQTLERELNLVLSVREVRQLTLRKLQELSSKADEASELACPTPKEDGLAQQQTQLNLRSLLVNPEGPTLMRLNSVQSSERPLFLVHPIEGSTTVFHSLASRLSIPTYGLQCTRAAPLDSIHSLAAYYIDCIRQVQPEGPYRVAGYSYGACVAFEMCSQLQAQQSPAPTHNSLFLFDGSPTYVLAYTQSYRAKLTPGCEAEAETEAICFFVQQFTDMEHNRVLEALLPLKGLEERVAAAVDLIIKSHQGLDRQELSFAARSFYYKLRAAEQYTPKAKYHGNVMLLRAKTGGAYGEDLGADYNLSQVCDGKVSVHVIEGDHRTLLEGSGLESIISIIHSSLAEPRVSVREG
# Protocol text: FAS thioesterase domain inhibitors, dose response, biochemical, kinetic fluorescence intensity (AID 624326);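 also: rate of fluorescence rise from hydrolysis of a fluorogenic O-methyl fluorescein ester substrate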
# Format: functional
The source made the active and inactive calls.
Readout name: IC50

Here are 4 compounds together with their reported answers.
NC(=S)n1nc(-c2ccc([N+](=O)[O-])cc2)c(/N=N/c2ccc(Cl)cc2)c1O    9.27 µM (active)
COc1ccc(-c2csc3nc(-c4ccccc4F)oc(=O)c23)cc1OC    6.25 µM (active)
COc1cc(/C=N/NC(=O)c2cncc(Br)c2)cc([N+](=O)[O-])c1O    9.66 µM (active)
Cc1ccccc1C1=C/C(=C(\SS/C(C(=O)c2ccc(OCC(=O)O)c(Cl)c2Cl)=C2\C=C(c3ccccc3C)SS2)C(=O)c2ccc(OCC(=O)O)c(Cl)c2Cl)SS1    6.62 µM (active)

In the following, a different compound is considered.
Param item: Cc1ccc(-n2[nH]c(C)c(/C=N/Nc3ccc([N+](=O)[O-])cc3[N+](=O)[O-])c2=O)cc1 ; param system: UniProt P49327; output IC50: 13.6 µM (active)

Every entry's value here was drawn from ChEMBL document CHEMBL1201862.
